- assay_info: Apparent permeability of the compound across apical side to basolateral side in human Caco2 cells at 10 uM incubated for 2 hrs by LC-MS/MS method
- Type: ADME, cell-based
- test_context: Caco-2
# reported Papp A→B at 2 h, 10 µM; entries follow

Field: example entries. Status: answers known.
CCCCC1=C(P(=O)(O)O)N[C@H](C(=O)O)CS1	1.1 ×10⁻⁶ cm/s
CCCCCCC1=C(P(=O)(O)O)N[C@H](C(=O)O)CS1	< 0.01 ×10⁻⁶ cm/s
CCCCC1=C(P(=O)(O)O)N[C@H](C(=O)OCC)CS1	< 0.01 ×10⁻⁶ cm/s
CCOC(=O)[C@@H]1CSC=C(C(=O)O)N1	< 0.01 ×10⁻⁶ cm/s

Now for another entry.
Quick check: Papp A→B at 2 h, 10 µM of `CCCCCCC1=C(P(=O)(O)O)N[C@H](C(=O)OCC)CS1` ? < 0.01 ×10⁻⁶ cm/s

* * *

- assay_info: Efflux ratio in human Caco2 cells at 10 uM incubated for 2 hrs by LC-MS/MS method
- Assay type: ADME, cell-based
- test_context: Caco-2
readout_kind: efflux ratio at 2 h, 10 µM

Quick check: efflux ratio at 2 h, 10 µM of `CCCCC1=C(P(=O)(O)O)N[C@H](C(=O)O)CS1` ? 0.33
